Molecular target: HLA-B*08:01
Experiment: IEDB peptide-MHC binding, purified MHC/competitive/radioactivity; filed as Kd, often an IC50 or EC50 that approximates it; bounds were set here for any values at or beyond the usual limits of such assays
Conditions: source organism: Dengue virus 2 Jamaica/1409/1983
RESULT_TYPE: pKd
pKd is a log-scale quantity: -log10 of the concentration expressed in molar.

Given the entry LMMRTTWAL , report its measured pKd.
8.88

Need pKd, item IENSSVNVSL
6.12

----------
Biological target: HLA-B*83:01
Assay: IEDB peptide-MHC binding, purified MHC/competitive/fluorescence; filed as Kd, often an IC50 or EC50 that approximates it; bounds were set here for any values at or beyond the usual limits of such assays
Settings: source organism: Brucella suis 1330
RESULT_TYPE: Kd

Fill in the recorded Kd for this sequence, with HLA-B*83:01 as test system: RQNAPFEPI
≥ 5 µM

----------
Target: HLA-B*48:01
Assay: IEDB peptide-MHC binding, purified MHC/direct/fluorescence; filed as Kd, often an IC50 or EC50 that approximates it; bounds were set here for any values at or beyond the usual limits of such assays
Conditions: source organism: Camelpox virus M-96
RESULT_TYPE: pKd
Notebook: values listed as pKd are -log10 of the concentration (mol/L).

Any idea what its pKd is? The sequence is WENGFKVVL
7.00

----------
Biological target: HLA-A*02:03
Assay: IEDB peptide-MHC binding, purified MHC/competitive/radioactivity; filed as Kd, often an IC50 or EC50 that approximates it; bounds were set here for any values at or beyond the usual limits of such assays
Conditions: source organism: Lymphocytic choriomeningitis virus (strain Armstrong)
Exercise: for every item that follows, state its recorded pKd.
Would you please state pKd, meaning minus log10 of the concentration in mol/L, as a bare number?

Reported pKd, sequence YCNYSKFWYL : ____
5.02

Which pKd reading was recorded for the sequence LNMFVSDQV ?
6.06

----------
Biological target: HLA-B*35:01
Assay: IEDB peptide-MHC binding, purified MHC/competitive/fluorescence; filed as Kd, often an IC50 or EC50 that approximates it; bounds were set here for any values at or beyond the usual limits of such assays
Conditions: source organism: Influenza A virus H3N2
RESULT_TYPE: Kd (nM)
Express your answer in nM, writing the number without its unit.

Give its Kd value. Item: LTITYSSSM
1180

----------
Target: HLA-A*02:17
Experiment: IEDB peptide-MHC binding, purified MHC/competitive/radioactivity; filed as Kd, often an IC50 or EC50 that approximates it; bounds were set here for any values at or beyond the usual limits of such assays
Conditions: source organism: Dengue virus 3 China/80-2/1980
RESULT_TYPE: Kd (nM)
Kindly provide the numeric value in nM only, without the unit symbol.

Item ILWENNIKL has what recorded Kd?
91.1

So what's the measured Kd for this one? ILALFLAHYI
266

----------
Molecular target: HLA-B*27:20
Experiment: IEDB peptide-MHC binding, purified MHC/competitive/fluorescence; filed as Kd, often an IC50 or EC50 that approximates it; bounds were set here for any values at or beyond the usual limits of such assays
Conditions: source organism: Brucella suis 1330
RESULT_TYPE: Kd (nM)
Expressed in nM, but write only the number.

Which Kd is listed for RQNAPFEPI ?
1.1

----------
Biological target: HLA-A*31:01
Assay: IEDB peptide-MHC binding, purified MHC/competitive/fluorescence; filed as Kd, often an IC50 or EC50 that approximates it; bounds were set here for any values at or beyond the usual limits of such assays
Conditions: source organism: Acinetobacter baumannii
RESULT_TYPE: Kd
Respond with a number, then the unit of measure.

Suppose we examine the sequence SIYAGNTPK ; what Kd value has been reported?
34.4 nM

// data source = the Immune Epitope Database (IEDB)
